- Tested on: Wolbachia pipientis
- assay-procedure: Anti-Wolbachia Cell-Based Screen
- Assay type: functional
- Design: scale not given: in the data most compounds retested in dose-response had high values
- test-context: 5 µM
Among all 48,000 compounds or so, about 13,000 (27%) showed an effect of 50% or more. This is one part of the list.
Could you please report measured Percent Effect for the items listed next?

Take a look at these entries with their results.
Q: Provide Wolbachia pipientis Percent Effect reading for O=C(O)c1ccc2c(CN3CCCC3)c[nH]c2c1 .
Ans: -9.8%

Q: Provide Wolbachia pipientis Percent Effect reading for CCc1cc(N[C@H](C(N)=O)C(C)C)n2nc(C)c(C)c2n1 .
Ans: -4.879%

Q: Provide Wolbachia pipientis Percent Effect reading for CC(C)C1=NOC2(CCN(Cc3c[nH]c4ccccc34)CC2)C1 .
Ans: 126.9%

Q: Provide Wolbachia pipientis Percent Effect reading for CCCOc1ccc(C(=O)N2CCN3CCNC(=O)C3C2)cc1Cl (stereo not drawn) .
Ans: -5.744%

Q: Provide Wolbachia pipientis Percent Effect reading for CCOC(C)c1noc(CN2CCN(CC3CCCC3)CC2)n1 (stereo not drawn) .
Ans: -4.058%

Q: Provide Wolbachia pipientis Percent Effect reading for COCCCC(=O)NS(=O)(=O)c1ccc2c(c1)OCCCO2 .
Ans: -8.462%

Q: Provide Wolbachia pipientis Percent Effect reading for CN1CC2(CCN(CC3CC3)CC2)COc2ccccc2S1(=O)=O.O=C(O)C(F)(F)F .
Ans: 105.1%

Q: Provide Wolbachia pipientis Percent Effect reading for Cc1cc(NC(=O)NCCc2cccnc2)n(C)n1 .
Ans: -22.8%

Respectfully, I request Percent Effect for each entry included below.
1. Cc1noc(C)c1CN1Cc2ccnn2CC(C(=O)NCC2CC2)C1.O=C(O)C(F)(F)F.O=C(O)C(F)(F)F (stereo not drawn)
2. CN1CC2(CCN(Cc3ccoc3)CC2)COc2ccccc2S1(=O)=O.O=C(O)C(F)(F)F
3. OCC1(Cc2ccc(Cl)cc2)CCN(Cc2cccnc2)CC1
4. CC(C)N1CC[C@H](c2nnc(Cc3c[nH]c4ccccc34)o2)C1
5. Cn1cc(CN2CCCCC2c2ccc(-c3cccc(F)c3)nc2)cn1 (stereo not drawn)
6. N#CCCN(Cc1cccnc1)C(=O)Cc1ccc(-n2cnnn2)cc1

Ans:
["-16.43%", "1.89%", "-27.42%", "-6.101%", "28.65%", "-0.659%"]

Respectfully, I request Percent Effect for each entry included below.
1. COc1cccc(S(=O)(=O)Cc2cc(C)on2)c1
2. CC(C#N)CNS(=O)(=O)c1ccc(F)c(Br)c1 (stereo not drawn)
3. CC1(C)CN(Cc2nnc(-c3cccnc3)o2)CC[C@]1(C)O
4. CC1CN(C(=O)Nc2cc(C(F)(F)F)c[nH]c2=O)CCO1 (stereo not drawn)
5. CNC(=O)c1ccc(S(=O)(=O)NCCc2ccccn2)cc1
6. CC(=O)Nc1nc(C)c(S(=O)(=O)NCCc2cccnc2)s1
7. O=C(NCC1CC1)C1CN(c2ncccn2)Cc2ccnn2C1.O=C(O)C(F)(F)F.O=C(O)C(F)(F)F (stereo not drawn)
8. O=S(=O)(Nc1cnn(C2CCOCC2)c1)c1c(F)cccc1F

Ans:
1: -2.252%; 2: -7.227%; 3: -0.3969%; 4: 83.43%; 5: -1.31%; 6: 82%; 7: 106%; 8: -13.72%

Respectfully, I request Percent Effect for each entry included below.
1. O=C(CN1CCCCCC1=O)NCC1CCN(c2ccccc2)C1 (stereo not drawn)
2. CC(C)(NCC(=O)NCCC#N)c1ccc2c(c1)OCCO2
3. O=C1OCCN1CC(=O)N1C[C@H]2CC[C@@H]1CN(C(=O)c1ccccn1)C2
4. Clc1ccc(CN2CCC3(CC2)CC(c2cccnc2)=NO3)cc1

Ans:
-4.287%
4.777%
-8.504%
114.5%

----------
- System: Wolbachia pipientis
- assay-procedure: Anti-Wolbachia Cell-Based Screen
- Type: functional
- Set-up: scale not given: in the data most compounds retested in dose-response had high values
- test-context: 5 µM
In all, about 48,000 compounds went through this assay and about 13,000 (27%) showed an effect of 50% or more. The list shows a part of the results.
Could you please report measured Percent Effect for the items listed next?
Numbers only, in %.

Respectfully, I request Percent Effect for each entry included below.
1. CSc1ncccc1C(=O)NCCC(O)c1ccco1 (stereo not given)
2. O=C(c1csc(-c2ccco2)n1)N(CC1CCOC1)C1CC1 (stereo not given)

Ans:
-7.347
-4.102

Respectfully, I request Percent Effect for each entry included below.
1. CC1CN(Cc2ccccc2)CCCN1CCNS(C)(=O)=O (stereo not given)
2. Cc1ccc(-c2nc(C(=O)NCC3CCOC3)cs2)cc1 (stereo not given)
3. O=C(NC1CC1)[C@H]1CC[C@@H]2[C@@H](CCN2c2ncc(F)cn2)O1.O=C(O)C(F)(F)F
4. O=S(=O)(c1cccnc1)N1CCN(CC(O)c2ccccc2)CC1 (stereo not given)

Ans:
2.156
113.2
-10.92
2.359

----------
- Test system: Wolbachia pipientis
- assay-procedure: Anti-Wolbachia Cell-Based Screen
- Format: functional
- Parameters: scale not given: in the data most compounds retested in dose-response had high values
- test-context: 5 µM
In all, about 48,000 compounds went through this assay and about 13,000 (27%) showed an effect of 50% or more. Some of the results follow.
Could you please report measured Percent Effect for the items listed next?
One number for each entry, in %.

Q: For the compound Cc1nn(C)c(N2CCOCC2)c1CNCC1CCN(C2CC2)C1 (centres undefined) , give its measured Percent Effect value.
Ans: -9.16

Q: For the compound CN(C)CCN(C)C(=O)c1cn(CC2CCCCC2)nn1 , give its measured Percent Effect value.
Ans: 101.9

Q: For the compound CCN(Cc1ccncc1)C(=O)c1cn(CCC2CCCCC2)nn1 , give its measured Percent Effect value.
Ans: 4.586

Q: For the compound CC(NC(=O)COc1ccc(Cl)cc1Cl)c1nncn1C(C)C (centres undefined) , give its measured Percent Effect value.
Ans: 0.4331

Q: For the compound CCN(Cc1ccncc1)C(=O)c1cn(CC2CCCNC2)nn1 (centres undefined) , give its measured Percent Effect value.
Ans: -3.068

Q: For the compound CNC(=O)c1cc2c(nc1NCC(C)C)CCN(S(=O)(=O)C1CC1)CC2 , give its measured Percent Effect value.
Ans: -0.7375

Q: For the compound COc1ccc(CNC(=O)N2CCCN(CC3CCCCC3)CC2)cn1 , give its measured Percent Effect value.
Ans: -6.571

Q: For the compound O=C(Nc1nnn[nH]1)c1ccc(-n2cccc2)c(F)c1 , give its measured Percent Effect value.
Ans: -12.4

Q: For the compound Cc1nccn1CCN(C)C(=O)c1cn(-c2ccccc2)nn1 , give its measured Percent Effect value.
Ans: 107.7

Q: For the compound Cc1nn(C)c(N2CCOCC2)c1CNCc1ccnn1C , give its measured Percent Effect value.
Ans: 142.8

Respectfully, I request Percent Effect for each entry included below.
1. CS(=O)(=O)c1ccc(CN2C[C@@H]3OCC(=O)N(CC(N)=O)[C@@H]3C2)cc1
2. CCOC(=O)NC(CNC(=O)c1cc(Cl)ccn1)CC(C)C (centres undefined)
3. COCC(=O)N1CCCC1c1cc(N2CCN(C(C)=O)CC2)cc(C)n1 (centres undefined)

Ans:
1. 4.5
2. 7.591
3. 110.9

Respectfully, I request Percent Effect for each entry included below.
1. CCN(CC1CCOC1)C(=O)c1cc(OC)c2c(c1)OCCO2 (centres undefined)
2. COCCNC(=O)NC(c1ccccc1)c1ccccc1OC (centres undefined)
3. CN(Cc1ccncc1)C(=O)NCc1cn(-c2ccccc2)nn1

Ans:
[-3.228, 3.321, -7.371]

Respectfully, I request Percent Effect for each entry included below.
1. CCCn1cnnc1CNC(=O)CC1C(=O)NCCN1CC=C(C)C (centres undefined)
2. O=C(c1cccc2ncccc12)N1CCCN(c2cccnn2)CC1
3. O=C(c1ccc2cccc(F)c2n1)N1CCN(CCn2cccc2)CC1
4. Cn1ccnc1Sc1ncc(C(=O)N2CCCCC2)cc1Cl

Ans:
1. 0.5151
2. -3.765
3. 4.444
4. 1.099

Respectfully, I request Percent Effect for each entry included below.
1. Cc1cccc(CNCc2c(C)nn(C)c2N2CCOCC2)n1
2. Cc1nn(C)c(N2CCOCC2)c1CNCc1ccccc1CO
3. Cc1nn(C)c(N2CCOCC2)c1CNCc1ccoc1C
4. Cc1cccc(=O)n1CCCNc1ncnc2c1CCNCC2
5. Cc1nn(C)c(N2CCOCC2)c1CNCc1ccc(Cl)s1
6. Cc1nn(C)c(N2CCOCC2)c1CNCc1nccs1
7. Cc1nn(C)c(N2CCOCC2)c1CNCC1CCCN1C (centres undefined)
8. Cc1nccn1CCC(=O)N1CCCN(c2ccccc2)CC1

Ans:
1: -8.764; 2: 115.8; 3: 153.8; 4: -13.78; 5: 2.748; 6: -7.203; 7: -4.188; 8: 21.45

Respectfully, I request Percent Effect for each entry included below.
1. CC(C)CN(C)Cc1c[nH]nc1-c1ccc(F)cc1F
2. Cc1cccc(-n2cc(CN3CCN(C)[C@@H]4CS(=O)(=O)C[C@@H]43)cn2)c1

Ans:
1: -3.52; 2: -4.421

Respectfully, I request Percent Effect for each entry included below.
1. Cc1ccccc1-n1cc(CNc2ncnc3c2CCNCC3)cn1
2. COCC(=O)N1CCN(c2cc(-n3cccc3)nc(C)n2)CC1
3. Cc1nn(C)c(N2CCOCC2)c1CNCc1ccc(CO)c(F)c1

Ans:
[113.8, -19, 138]

Respectfully, I request Percent Effect for each entry included below.
1. Cc1cccc(-n2cc(CNc3ncnc4c3CCNCC4)cn2)c1
2. CC(C(=O)N1CCn2cncc2C1)N1C[C@@H](C)O[C@@H](C)C1 (some centres undefined)
3. Cc1ncc(CN(C)C(=O)Nc2cccc(N3CCNC3=O)c2)s1
4. COc1cccc(CCC2CCCN(C(=O)C3=NN(C)C(=O)CC3)C2)c1 (centres undefined)
5. Cc1nccn1CCC1CCCCN1Cc1cnc(N(C)C)nc1 (centres undefined)
6. CN(CCc1ccccc1)Cc1cc(C(=O)N2CCN(C)C(=O)C2)no1

Ans:
1: 94.66; 2: 4.778; 3: -6.99; 4: 3.443; 5: -18.73; 6: 103.8
